Listed next: entries and their corresponding log10 of IC50.
# Target entity: Aurora-B (Homo sapiens)
# Sequence (Q96GD4 whole entry): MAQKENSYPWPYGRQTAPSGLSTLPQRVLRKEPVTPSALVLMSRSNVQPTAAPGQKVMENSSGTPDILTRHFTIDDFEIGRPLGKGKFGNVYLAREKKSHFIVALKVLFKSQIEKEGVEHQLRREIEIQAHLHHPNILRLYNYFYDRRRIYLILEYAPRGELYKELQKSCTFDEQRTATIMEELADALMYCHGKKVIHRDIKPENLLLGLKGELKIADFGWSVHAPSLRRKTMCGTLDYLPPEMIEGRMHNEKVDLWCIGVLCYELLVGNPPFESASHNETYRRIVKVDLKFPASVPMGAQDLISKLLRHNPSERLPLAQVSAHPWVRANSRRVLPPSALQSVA
# Protocol text: Aurora kinase activity assay (Caliper mobility shift), Aurora B
# Assay type: biochemical
# Condition info: recombinant Aurora kinase, FAM labeled peptide substrate
# log10 transformed; quantity=IC50; unit=nM

Input CC1CC(Cc2nc(Nc3nccs3)ccc2F)(C(=O)O)CCN1Cc1cccc(Cl)c1F (racemic) . Output log10 of IC50: 1.30

###

# Target entity: Aurora-A (Homo sapiens, UniProt O14965)
# Sequence (O14965 whole entry): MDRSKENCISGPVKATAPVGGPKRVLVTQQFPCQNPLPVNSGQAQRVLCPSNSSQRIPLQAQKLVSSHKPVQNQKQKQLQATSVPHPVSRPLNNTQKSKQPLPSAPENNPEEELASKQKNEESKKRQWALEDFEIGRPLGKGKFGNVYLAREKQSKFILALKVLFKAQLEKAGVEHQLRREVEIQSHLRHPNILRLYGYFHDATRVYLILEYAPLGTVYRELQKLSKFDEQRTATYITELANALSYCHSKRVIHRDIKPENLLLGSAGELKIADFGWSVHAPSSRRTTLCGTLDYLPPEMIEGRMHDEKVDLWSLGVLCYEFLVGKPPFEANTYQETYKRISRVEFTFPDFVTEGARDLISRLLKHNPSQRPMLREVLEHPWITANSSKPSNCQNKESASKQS
# Protocol text: Aurora kinase activity assay (Caliper mobility shift), Aurora A
# Format: biochemical
# Condition info: recombinant Aurora kinase, FAM labeled peptide substrate
Threshold-based label: IC50 under 1 nM gives fulfilled, IC50 not under 1 nM gives not fulfilled.

CC1CC(Cc2nc(Nc3nccs3)ccc2F)(C(=O)O)CCN1Cc1ccnc(Cl)c1F (centres unmarked)    fulfilled
CC1CC(Cc2nc(Nc3nccs3)ccc2F)(C(=O)O)CCN1Cc1cccc2c1OC(F)(F)O2 (centres unmarked)    not fulfilled
C[C@@H]1C[C@](Cc2nc(Nc3nccs3)ccc2F)(C(=O)O)CCN1Cc1cccc(Cl)c1F    fulfilled
Cc1cc(Nc2ccc(F)c(CC3(C(=O)O)CCN(C(=O)c4cccc(Cl)c4F)C(C)C3)n2)n[nH]1 (centres unmarked)    not fulfilled
CC1CC(Cc2nc(Nc3nccs3)ccc2F)(C(=O)O)CCN1Cc1cccc(Cl)c1F (racemic)    fulfilled

Input: Consider [2H]C([2H])(c1cccc(Cl)c1F)N1CCC(Cc2nc(Nc3nccs3)ccc2F)(C(=O)O)CC1C (centres unmarked) . Does its IC50 lie strictly below 1 nM?
Output: fulfilled

Input: For CC1(C)CC(Cc2nc(Nc3nccs3)ccc2F)(C(=O)O)CCN1Cc1cccc(Cl)c1F (centres unmarked) , is the recorded IC50 below the cut-off of 1 nM?
Output: not fulfilled

###

# Target entity: Aurora-B (Homo sapiens)
# Protocol text: Aurora kinase activity assay (Caliper mobility shift), Aurora B
# Format: biochemical
# Condition info: recombinant Aurora kinase, FAM labeled peptide substrate
// returns False unless IC50 is strictly below 300 nM, in which case True

# example entries with known answers
Cc1cc(Nc2ccc(F)c(CC3(C(=O)O)CCN(C(=O)c4cccc(Cl)c4F)C(C)C3)n2)n[nH]1 (stereo not shown)    False
C[C@@H]1C[C@](Cc2nc(Nc3nccs3)ccc2F)(C(=O)O)CCN1Cc1cccc(Cl)c1F    True
CC1CC(Cc2nc(Nc3nccs3)ccc2F)(C(=O)O)CCN1C(C)c1cccc(Cl)c1F (stereo not shown)    True

Input: Dear colleague, could you confirm whether IC50 of CC1(C)CC(Cc2nc(Nc3nccs3)ccc2F)(C(=O)O)CCN1Cc1cccc(Cl)c1F (stereo not shown) falls below 300 nM? Thanks.
Output: False

Input: Identify whether the molecule [2H]C([2H])(c1cccc(Cl)c1F)N1CCC(Cc2nc(Nc3nccs3)ccc2F)(C(=O)O)CC1C (stereo not shown) records IC50 below 300 nM.
Output: True

Input: Confirm or reject: IC50 of CC1CC(Cc2nc(Nc3nccs3)ccc2F)(C(=O)O)CCN1Cc1cccc2c1OC(F)(F)O2 (stereo not shown) lies strictly below 300 nM
Output: False

Input: Given CC1CC(Cc2nc(Nc3nccs3)ccc2F)(C(=O)O)CCN1Cc1ccnc(Cl)c1F (stereo not shown) , is recorded IC50 strictly lower than 300 nM?
Output: False
